# Experimental Protocol: Determination of the microsomal half-life / microsomal clearance (human liver microsomes)
# Format: in vitro ADME
# Reported Conditions: pH 7.4, 0.5 μM test substance
Where a name gives a salt, the structure may show the parent alone.
Reported microsomal CLint at 0.5 μM values for a set of compounds

[[record]]
compound = "CCOc1ncccc1C1(OC(=O)N2CCN(C3CCNCC3)CC2)C(=O)N(S(=O)(=O)c2ccc(OC)cc2OC)c2ccc(C#N)cc21 (racemic) [Example 25, bis(trifluoroacetic acid) salt]"
readout_type = "microsomal CLint at 0.5 μM"
recorded_result = "50 to 75 µL/min/mg"

[[record]]
compound = "CCOc1ncccc1C1(OC(=O)N2CCC(N3CCNCC3)CC2)C(=O)N(S(=O)(=O)c2ccc(OC)cc2OC)c2ccc(C#N)cc21 (stereo not drawn) [Example 55, bis(trifluoroacetic acid) salt]"
readout_type = "microsomal CLint at 0.5 μM"
recorded_result = "75 to 200 µL/min/mg"


Please find the next compound below.
Entry CCOc1ncccc1C1(OC(=O)N2CCC(N3CCN(CC)CC3)CC2)C(=O)N(S(=O)(=O)c2ccc(OC)cc2OC)c2ccc(C#N)cc21 (racemic) [Example 37] has what microsomal CLint at 0.5 μM?
75 to 200 µL/min/mg
